subject.of.test: Endothelial PAS domain-containing protein 1 (Homo sapiens)
experiment.summary: HIF-1a and HIF-2a reporter inhibitors, SAR follow-up, cell-based, luminescence, MIAPaCa-2, 786-0, panel (AID 652011)
study.conditions: MIAPaCa-2/PANC HIF reporter, luciferase luminescence, desferoxamine, overnight, HIF2a PANC, run 2; at 99 µM (top of the series)
Note to self: class labels come from recorded inhibition, ranges listed here: lower band: < 30%; central band: ≥ 30% and < 90%; upper band: ≥ 90%

[[record]]
compound = "CCCNC(=O)CCc1nc(-c2ccc(C(C)(C)C)cc2)no1"
subject_of_test = "Endothelial PAS domain-containing protein 1 (Homo sapiens)"
answer_label = "central band"

[[record]]
compound = "CCc1ccc(-c2noc(CCC(=O)NC3CC3)n2)cc1"
subject_of_test = "Endothelial PAS domain-containing protein 1 (Homo sapiens)"
answer_label = "lower band"

[[record]]
compound = "CCOc1ccc(-c2noc(CCC(=O)O)n2)cc1"
subject_of_test = "Endothelial PAS domain-containing protein 1 (Homo sapiens)"
answer_label = "upper band"

[[record]]
compound = "CC(C)(C)c1ccc(-c2noc(CCC(=O)Nc3cccc([N+](=O)[O-])c3)n2)cc1"
subject_of_test = "Endothelial PAS domain-containing protein 1 (Homo sapiens)"
answer_label = "central band"

[[record]]
compound = "CC(C)NC(=O)CCc1nc(-c2ccc(C(C)(C)C)cc2)no1"
subject_of_test = "Endothelial PAS domain-containing protein 1 (Homo sapiens)"
answer_label = "central band"

[[record]]
compound = "CNC(=O)CCc1nc(-c2ccc(C)cc2)no1"
subject_of_test = "Endothelial PAS domain-containing protein 1 (Homo sapiens)"
answer_label = "central band"

[[record]]
compound = "CCOc1ccc(-c2noc(CCC(=O)NC)n2)cc1"
subject_of_test = "Endothelial PAS domain-containing protein 1 (Homo sapiens)"
answer_label = "upper band"

[[record]]
compound = "CCNC(=O)CCc1nc(-c2ccc(OCC)cc2)no1"
subject_of_test = "Endothelial PAS domain-containing protein 1 (Homo sapiens)"
answer_label = "lower band"

[[record]]
compound = "CCc1ccc(-c2noc(CCC(=O)NC(C)CC)n2)cc1 (configuration not stated)"
subject_of_test = "Endothelial PAS domain-containing protein 1 (Homo sapiens)"
answer_label = "lower band"

[[record]]
compound = "CC(C)(C)c1ccc(-c2noc(CCC(=O)O)n2)cc1"
subject_of_test = "Endothelial PAS domain-containing protein 1 (Homo sapiens)"
answer_label = "upper band"

[[record]]
compound = "CCCCc1ccc(-c2noc(CCC(=O)NC(C)CC)n2)cc1 (configuration not stated)"
subject_of_test = "Endothelial PAS domain-containing protein 1 (Homo sapiens)"
answer_label = "central band"

[[record]]
compound = "CC(C)(C)c1ccc(-c2noc(CCC(=O)N3CCOCC3)n2)cc1"
subject_of_test = "Endothelial PAS domain-containing protein 1 (Homo sapiens)"
answer_label = "central band"


Values compiled from PubChem BioAssay AID652011.
